Here, each record is paired with measured %Inh data.
# System: ERBB2;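 note: KINOMEscan kinase panel screen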
# CONDITION DESCRIPTION: concentration: 1 μM, replicates: in singlicate; n = 1
QUANTITY KIND: %Inh (%)

>>> df
                                    molecule  target_system  quantity_kind  recorded_measurement
 0  CC(=O)Nc1nc2cnc(Nc3cc(NC(=O)c4cccc(C5(C#N)CC5)c4Cl)ccc3C)nc2s1          ERBB2           %Inh                    14
 1  Fc1ccc(-c2ncn(C3CCNCC3)c2-c2ccnc(Oc3ccc(-c4ccccc4)cc3)n2)cc1          ERBB2           %Inh                    62
 2  Nc1ncc(-c2ccc3nccc(-c4ccncc4)c3c2)cc1S(=O)(=O)N1CCOCC1          ERBB2           %Inh                     0
 3  Cc1ccc(C(=O)N2CC[C@@H](O)C2)cc1-n1c(C)cc(OCc2ccc(F)cc2F)c(Br)c1=O          ERBB2           %Inh                    36
 4  COc1cccc(C2=C(Nc3ccc(Cl)c(C(=O)O)c3)C(=O)NC2=O)c1          ERBB2           %Inh                    28
 5  COCCOCCOc1cc2ncc3c4ccc(C#N)cc4[nH]c3c2cc1OC          ERBB2           %Inh                    34
 6  Cl.Cl.NCC(NC(=O)c1cc(-c2ccccc2)c(-c2ccnc3[nH]ccc23)s1)c1ccccc1 (stereo not shown)          ERBB2           %Inh                    58
 7  COc1ccc(Nc2nccc(N3CCC(NC(=O)Nc4cccc(OC)c4)C3)n2)cc1 (stereo not shown)          ERBB2           %Inh                    34
 8     O=C(Nc1n[nH]c2cc(-c3ccoc3)ccc12)C1CC1          ERBB2           %Inh                     0
 9  Nc1ncc(-c2cccnc2)c2scc(-c3ccc4c(c3)CCN4C(=O)Cc3ccccc3)c12          ERBB2           %Inh                     1
10  FC(F)(F)c1ccc(/C=C/c2cncnc2Nc2ccc3[nH]c(Cc4ccccc4)nc3c2)cc1          ERBB2           %Inh                    69
11  Cc1cccc(Nc2nc(N[C@H]3CCNC3)ncc2C(N)=O)c1.Cl          ERBB2           %Inh                    13
12  O=C(Nc1ccccc1F)NC1CCN(c2ccnc(Nc3ccc(F)cc3)n2)CC1          ERBB2           %Inh                    33
13  CCCCc1nn2ncccc2c1-c1ccnc(Nc2ccc(N3CCN(C)CC3)cc2)n1          ERBB2           %Inh                    69
14  Cc1ccc(C)c(NC(=O)NC2CCN(c3ccnc(Nc4ccc(F)cc4)n3)C2)c1 (stereo not shown)          ERBB2           %Inh                    43
15  CN(C)Cc1ccc(-c2ccc3c(Nc4ccc(Oc5ccccn5)cc4)ccnc3c2)o1          ERBB2           %Inh                    45
16  CN1CCN(CCCNc2nccc(-c3c(-c4ccc(F)cc4)nn4cc(C(F)(F)F)ccc34)n2)CC1          ERBB2           %Inh                     0
17  Cc1ccc(F)c(C(=O)Nc2cccc(-c3nn4ccccc4c3-c3ccnc(Nc4cccc(F)c4)n3)c2)c1F          ERBB2           %Inh                    88
18        Nc1ncnc2c1nc(-c1ccccc1)n2-c1ccccc1          ERBB2           %Inh                    14
19  CN1CCN(Cc2cccc(-c3ccc4c(Nc5ccc(Oc6ccccc6)cc5)ccnc4c3)c2)CC1          ERBB2           %Inh                    62
20            Oc1cc(Nc2ccnc3cc(I)ccc23)ccc1F          ERBB2           %Inh                    22
21  Cc1ccc(C(=O)Nc2ccc(Nc3ccnc4cc(-c5nccs5)ccc34)cc2O)cc1.Cl          ERBB2           %Inh                    42
22  Cc1cccc(NC(=O)Nc2ccc(Oc3ncnc4ccn(C)c34)cc2)c1          ERBB2           %Inh                    49
23  COC(=O)Nc1nc2cc(Oc3ccc(NC(=O)Nc4cc(C(F)(F)F)ccc4F)cn3)ccc2[nH]1.Cl.Cl          ERBB2           %Inh                    22
24  COc1ccc(Nc2nccc(NCCNC(=O)c3cc4ccccc4s3)n2)cc1          ERBB2           %Inh                     4
25  C[C@@H]1CC[C@@H](C(=O)Nc2ccccc2)CN1c1cc(-c2ccc3c(N)n[nH]c3c2)nc(N)n1          ERBB2           %Inh                    44
26  CCc1ccc(-c2ccc3c(c2)-c2c(cnn2C)S(=O)(=O)N3C)cc1          ERBB2           %Inh                     0
27  CSc1cccc2c(-c3ccncn3)c(-c3ccc(F)cc3)nn12          ERBB2           %Inh                    34
28  COc1cccc(C(=O)Nc2cccc(Oc3ccc4nc(NC(=O)C5CC5)cn4n3)c2)c1          ERBB2           %Inh                     4
29  COc1cc2c(cc1OCCN1CCNCC1)ncc1c3ccc(C#N)cc3[nH]c21          ERBB2           %Inh                     4
30  O=c1[nH]cc(-c2ccc(N3CCOCC3)cc2)c2sc(-c3cn[nH]c3)cc12          ERBB2           %Inh                     3
31  O=C(Nc1cccc(Oc2ccc3nc(NC(=O)C4CC4)cn3n2)c1)c1ccccc1C(F)(F)F          ERBB2           %Inh                    25
32  CC(=O)N1CCN(c2ccc(Nc3nccc(-c4sc(C(C)C)nc4-c4cccc(NS(=O)(=O)c5cccc(Cl)c5)c4)n3)cn2)CC1          ERBB2           %Inh                    82
33  O=C(Nc1n[nH]c2nc(-c3ccc(O)cc3)ccc12)C1CC1          ERBB2           %Inh                     0
